system: SK-MEL-28; test: NCI tumour cell line growth inhibition, 48 h
The source made the active and inactive calls. No stated cut-off is given here; in the data, active = GI50 up to about 1.1 µM and inactive = higher.
Respond only with the outcome that fits, drawn from active, inactive

Some solved entries appear below for comparison.
Compound: O=C1NC2(CCNCC2)Oc2ccccc21
Study System: SK-MEL-28
Qualitative Label: inactive

Compound: CC(=O)OCCOCNC(=S)N/N=C/c1ccc2ccccc2n1
Study System: SK-MEL-28
Qualitative Label: inactive

Compound: Cn1c(=O)n2c(-c3ccccc3)c(-c3ccccc3)n2c1=O
Study System: SK-MEL-28
Qualitative Label: inactive

Compound: COc1ccc2c(O)c1-c1c(OC)ccc(c1O)SSc1ccc(OC)c(c1O)-c1c(OC)ccc(c1O)SS2
Study System: SK-MEL-28
Qualitative Label: inactive

Compound: O=C1C(C(O)(C(F)(F)Cl)C(F)(F)Cl)CCCC1C(O)(C(F)(F)Cl)C(F)(F)Cl (stereo not drawn)
Study System: SK-MEL-28
Qualitative Label: inactive

Input: Hey, what did the test say about `O=P1(Oc2ccc(Cl)cc2Cl)Oc2cc3ccccc3cc2O1` ?
Output: inactive

Input: Could you please tell me the result logged for O=C1N/C(=N/N=C/C(O)C(O)C(O)CO)N/C1=C\c1ccco1 (stereo not drawn) in this assay?
Output: inactive

Input: GET /call?item= `COc1ccc(-c2nc(O)c3ccccc3n2)cc1` returns the recorded outcome of this test.
Output: inactive

Input: What did this assay record as the result for `Nc1nc(SCC(=O)O)nc(O)c1N` ?
Output: inactive

Input: Entry `Cc1nc(C(N)=S)sc1C(=O)C/C(=N/N)C(=O)Nc1cccc(Cl)c1C` : call = ?
Output: inactive
